- Read-out: CD69, CD69 (gene 969)
- experiment: BSK_SAg_CD69: BioMAP Diversity Plus: SAg Assay for CD69 Biomarker Activity (AID 2283089)
- measurement-context: primary human HUVEC with PBMC; actives raise or lower the signal
Calls of active or inactive are those of the source. The calls were made as follows: active = hit-call score of the fitted dose curve at least 0.9, where 1 is the maximum; inactive = score below 0.9.
API: response.call in t = active, f = inactive

Would you please look over these solved cases?
CSC(=O)c1c(C(F)F)nc(C(F)(F)F)c(C(=O)SC)c1CC(C)C : f
Cn1c(-c2ccccc2)cc(-c2ccccc2)[n+]1C : t
CCOc1nc(C(Cl)(Cl)Cl)ns1 : f

Task: For COCC(=O)N(c1c(C)cccc1C)C(C)C(=O)OC (centres undefined) , what call appears in the results of this test?
Result: f

Data origin: PubChem BioAssay (EPA / NIEHS)
